Target: 5-hydroxytryptamine receptor 2A (Rattus norvegicus) (UniProt P14842)
Sequence (P14842 whole entry): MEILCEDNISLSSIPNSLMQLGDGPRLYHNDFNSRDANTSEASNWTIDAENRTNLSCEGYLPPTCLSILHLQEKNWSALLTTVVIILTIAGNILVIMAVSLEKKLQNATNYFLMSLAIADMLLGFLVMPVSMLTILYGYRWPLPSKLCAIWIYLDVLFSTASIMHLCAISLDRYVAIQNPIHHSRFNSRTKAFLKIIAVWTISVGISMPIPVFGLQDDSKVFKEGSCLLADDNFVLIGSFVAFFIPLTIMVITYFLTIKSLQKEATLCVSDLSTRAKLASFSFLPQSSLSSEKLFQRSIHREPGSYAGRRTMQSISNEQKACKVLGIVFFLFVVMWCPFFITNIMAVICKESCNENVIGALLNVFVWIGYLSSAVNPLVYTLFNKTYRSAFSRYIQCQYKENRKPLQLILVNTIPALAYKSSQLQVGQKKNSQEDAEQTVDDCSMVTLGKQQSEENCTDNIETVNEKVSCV
Experiment: Displacement of [3H]ketanserin from rat cortical membrane 5-hydroxytryptamine 2A receptor at 10e-7 M
Use Condition met when the recorded inhibition is no lower than 30%; use Condition not met when it is lower.

1) CC1CN(CCCn2nc3ccccn3c2=O)CCN1c1cccc(Cl)c1 (configuration not stated): Condition met
2) O=C1CN(CCCn2nc3ccccn3c2=O)CCN1c1cccc(Cl)c1: Condition not met
3) CN(CCNCCCn1nc2ccccn2c1=O)c1cccc(Cl)c1: Condition not met
4) CC1C(=O)N(c2cccc(Cl)c2)CCN1CCCn1nc2ccccn2c1=O (configuration not stated): Condition not met
5) CC1CN(c2cccc(Cl)c2)CCN1CCCn1nc2ccccn2c1=O (configuration not stated): Condition met
6) CN(CCCn1nc2ccccn2c1=O)CCNc1cccc(Cl)c1: Condition not met
7) CC(CN1CCN(c2cccc(Cl)c2)CC1)Cn1nc2ccccn2c1=O (configuration not stated): Condition met

* * *

System: Sigma non-opioid intracellular receptor 1 (Sus scrofa)
Experiment: Inhibition of [3H](+)-pentazocine binding to Sigma opioid receptor type 1 of pig brain membranes at 10e-7 M
Measured inhibition values are reported for all entries that follow.
outcome_measure: inhibition (%)

1. CN(CCCn1nc2ccccn2c1=O)CCNc1cccc(Cl)c1: 30
2. CC(CN1CCN(c2cccc(Cl)c2)C(C)C1)Cn1nc2ccccn2c1=O (configuration not stated): 65
3. CC1CN(CCCn2nc3ccccn3c2=O)C(C)(C)CN1c1cccc(Cl)c1 (configuration not stated): 81
4. CC1CN(c2cccc(Cl)c2)CCN1CCCn1nc2ccccn2c1=O (configuration not stated): 43
5. CC1C(=O)N(c2cccc(Cl)c2)CCN1CCCn1nc2ccccn2c1=O (configuration not stated): 9
6. CC(CN1CCN(c2cccc(Cl)c2)CC1)Cn1nc2ccccn2c1=O (configuration not stated): 34
7. CCC1CN(c2cccc(Cl)c2)CCN1CCCn1nc2ccccn2c1=O (configuration not stated): 43
8. CN(CCNCCCn1nc2ccccn2c1=O)c1cccc(Cl)c1: 65
9. CC(CCn1nc2ccccn2c1=O)N1CCN(c2cccc(Cl)c2)CC1 (configuration not stated): 58
10. O=c1n(CCCNCCNc2cccc(Cl)c2)nc2ccccn12: 29
11. CC1CN(CCCn2nc3ccccn3c2=O)CCN1c1cccc(Cl)c1 (configuration not stated): 68
12. O=C1CN(CCCn2nc3ccccn3c2=O)CCN1c1cccc(Cl)c1: 12

* * *

Target: 5-hydroxytryptamine receptor 2A (Rattus norvegicus, UniProt P14842)
Assay: Compound was tested for it's binding affinity towards 5-hydroxytryptamine 2A receptor
Measured IC50 values are reported for all entries that follow.
outcome_measure: IC50 (nM)

1. C[C@H]1CN(c2cccc(Cl)c2)CCN1CCCn1nc2ccccn2c1=O: 25.4
2. C[C@@H]1CN(c2cccc(Cl)c2)CCN1CCCn1nc2ccccn2c1=O: 234

* * *

Measured inhibition values are reported for all entries that follow.
Test system: Serotonin transporter (Rattus norvegicus)
Assay: Displacement of [3H]-citalopram from rat forebrain membrane serotonin transporter at 10e-7 M
outcome_measure: inhibition (%)

1. CC1CN(CCCn2nc3ccccn3c2=O)C(C)(C)CN1c1cccc(Cl)c1 (stereo not drawn): 38
2. CCC1CN(c2cccc(Cl)c2)CCN1CCCn1nc2ccccn2c1=O (stereo not drawn): 20
3. CC1C(=O)N(c2cccc(Cl)c2)CCN1CCCn1nc2ccccn2c1=O (stereo not drawn): 0

The reported measurements were obtained from ChEMBL document CHEMBL1132559.
